# target.or.system: Large neutral amino acids transporter small subunit 1 (Homo sapiens)
# Sequence (Q01650 whole entry): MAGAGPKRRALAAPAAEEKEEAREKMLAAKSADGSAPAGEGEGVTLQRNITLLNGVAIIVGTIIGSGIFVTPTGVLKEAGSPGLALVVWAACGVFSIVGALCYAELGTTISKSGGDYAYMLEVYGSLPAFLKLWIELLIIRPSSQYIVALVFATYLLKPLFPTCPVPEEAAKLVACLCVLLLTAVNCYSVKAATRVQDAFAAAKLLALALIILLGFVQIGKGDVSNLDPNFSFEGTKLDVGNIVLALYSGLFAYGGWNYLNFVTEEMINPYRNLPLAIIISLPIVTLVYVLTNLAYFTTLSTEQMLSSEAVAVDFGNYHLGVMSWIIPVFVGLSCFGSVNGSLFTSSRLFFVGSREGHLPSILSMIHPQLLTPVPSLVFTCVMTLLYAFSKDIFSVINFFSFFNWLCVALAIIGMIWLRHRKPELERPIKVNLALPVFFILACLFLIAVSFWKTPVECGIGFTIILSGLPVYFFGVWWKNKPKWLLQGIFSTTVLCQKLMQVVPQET
# assay.overview: Substrate activity at human LAT1 expressed in HEK cells assessed as efflux rate of [3H]-gabapentin at 200 uM after 5 to 180 secs by scintillation counting based trans-stimulation assay
# Type: cell-based
# protocol.conditions: HEK293
Entry flag: 1 if Activity reaches 2 fmol/min; 0 if it does not.

Solved cases below.
>>> answer_label("N[C@@H](Cc1cccc(Cl)c1)C(=O)O")
1
>>> answer_label("CC(C)c1cccc(C[C@H](N)C(=O)O)c1")
0
>>> answer_label("N[C@@H](Cc1ccc(O)cc1)C(=O)O")
1
>>> answer_label("CCc1cccc(C[C@H](N)C(=O)O)c1")
1
>>> answer_label("N[C@@H](Cc1ccc(O)c(I)c1)C(=O)O")
1
>>> answer_label("N[C@@H](Cc1cccc(F)c1)C(=O)O")
1
>>> answer_label("N[C@@H](Cc1cccc(Cc2ccccc2)c1)C(=O)O")
0
>>> answer_label("N[C@@H](Cc1cccc(-c2ccccc2)c1)C(=O)O")
0

Kindly determine if Activity recorded for N[C@@H](Cc1ccc(O)c(-c2ccccc2)c1)C(=O)O is above or exactly 2 fmol/min.
0

Entry CC(C)(C)c1cc(C[C@H](N)C(=O)O)ccc1O please
0

Entry N=C(N)NCCC[C@H](N)C(=O)O please
0

Entry N[C@@H](Cc1ccc(O)c(F)c1)C(=O)O please
1

Entry CC(C)C[C@H](N)C(=O)O please
1

Entry N[C@@H](Cc1ccc(O)c(Br)c1)C(=O)O please
0

Entry N[C@@H](Cc1ccc(O)c(Cl)c1)C(=O)O please
1

Entry COc1ccc(C[C@H](N)C(=O)O)cc1C please
1

From: ChEMBL document CHEMBL3808321
